Experiment: Maximum non-lethal dose (NLD), single intravenous dose in mice
Assay type: in vivo, Swiss-Webster male mice
Conditions: test compounds as aspartate salts in 5% mannitol, AmB as FUNGIZONE
Tick class 1 if NLD acute mice is 10 mg/kg or greater. Tick class 0 if NLD acute mice is less than 10 mg/kg.

| compound | qualitative-label |
| --- | --- |
| CC1[C@H](C)OC(=O)C[C@H](O)C[C@H](O)CC[C@@H](O)[C@H](O)C[C@H](O)C[C@]2(O)C[C@H](O)C(C(=O)N3CCOCC3)C(C[C@@H](OC3O[C@H](C)[C@@H](O)[C@H](NC[C@@]4(O)OC[C@@H](O)[C@@H](O)[C@@H]4O)[C@@H]3O)/C=C/C=C/C=C/C=C/C=C/C=C/C=C/[C@H](C)[C@H]1O)O2 (some centres unmarked) | class 0 |
| CC1[C@H](C)OC(=O)C[C@H](O)C[C@H](O)CC[C@@H](O)[C@H](O)C[C@H](O)C[C@]2(O)C[C@H](O)C(C(=O)N[C@@H]3C(O)O[C@H](CO)[C@@H](O)[C@@H]3O)C(C[C@@H](OC3O[C@H](C)[C@@H](O)[C@H](N)[C@@H]3O)/C=C/C=C/C=C/C=C/C=C/C=C/C=C/[C@H](C)[C@H]1O)O2 (some centres unmarked) | class 0 |
| CC1[C@H](C)OC(=O)C[C@H](O)C[C@H](O)CC[C@@H](O)[C@H](O)C[C@H](O)C[C@]2(O)C[C@H](O)C(C(=O)N3CCN(Cc4ccccc4)CC3)C(C[C@@H](OC3O[C@H](C)[C@@H](O)[C@H](NC[C@@]4(O)OC[C@@H](O)[C@H](O)[C@@H]4O)[C@@H]3O)/C=C/C=C/C=C/C=C/C=C/C=C/C=C/[C@H](C)[C@H]1O)O2 (some centres unmarked) | class 1 |
| CC1[C@H](C)OC(=O)C[C@H](O)C[C@H](O)CC[C@@H](O)[C@H](O)C[C@H](O)C[C@]2(O)C[C@H](O)C(C(=O)NCCN3CCCCC3)C(C[C@@H](OC3O[C@H](C)[C@@H](O)[C@H](NC[C@@]4(O)OC[C@@H](O)[C@H](O)[C@@H]4O)[C@@H]3O)/C=C/C=C/C=C/C=C/C=C/C=C/C=C/[C@H](C)[C@H]1O)O2 (some centres unmarked) | class 1 |
| CC1[C@H](C)OC(=O)C[C@H](O)C[C@H](O)CC[C@@H](O)[C@H](O)C[C@H](O)C[C@]2(O)C[C@H](O)C(C(=O)NCCCN3CCOCC3)C(C[C@@H](OC3O[C@H](C)[C@@H](O)[C@H](NC[C@@]4(O)OC[C@@H](O)[C@H](O)[C@@H]4O)[C@@H]3O)/C=C/C=C/C=C/C=C/C=C/C=C/C=C/[C@H](C)[C@H]1O)O2 (some centres unmarked) | class 1 |
| CC1[C@H](C)OC(=O)C[C@H](O)C[C@H](O)CC[C@@H](O)[C@H](O)C[C@H](O)C[C@]2(O)C[C@H](O)C(C(=O)N3CCN(C)CC3)C(C[C@@H](OC3O[C@H](C)[C@@H](O)[C@H](NC[C@@]4(O)OC[C@@H](O)[C@@H](OC5O[C@H](CO)[C@H](O)[C@H](O)[C@H]5O)[C@@H]4O)[C@@H]3O)/C=C/C=C/C=C/C=C/C=C/C=C/C=C/[C@H](C)[C@H]1O)O2 (some centres unmarked) | class 0 |
| CC1[C@H](C)OC(=O)C[C@H](O)C[C@H](O)CC[C@@H](O)[C@H](O)C[C@H](O)C[C@]2(O)C[C@H](O)C(C(=O)NCCN3CCCCC3)C(C[C@@H](OC3O[C@H](C)[C@@H](O)[C@H](NC[C@@]4(O)OC[C@@H](O)[C@@H](O)[C@@H]4O)[C@@H]3O)/C=C/C=C/C=C/C=C/C=C/C=C/C=C/[C@H](C)[C@H]1O)O2 (some centres unmarked) | class 1 |

Would you kindly look at the next entry?
Please indicate if the recorded NLD acute mice for CC1[C@H](C)OC(=O)C[C@H](O)C[C@H](O)CC[C@@H](O)[C@H](O)C[C@H](O)C[C@]2(O)C[C@H](O)C(C(=O)N3CCN(C)CC3)C(C[C@@H](OC3O[C@H](C)[C@@H](O)[C@H](NC[C@@]4(O)OC[C@@H](O)[C@H](O)[C@@H]4O)[C@@H]3O)/C=C/C=C/C=C/C=C/C=C/C=C/C=C/[C@H](C)[C@H]1O)O2 (some centres unmarked) meets or exceeds 10 mg/kg.
class 0

These data points were gathered from patent US6664241B2.
